# procedure-text: soluble on expression in E. coli; label from the status in PepcDB or PDB records
quantity-kind: soluble on expression in E. coli

- MAHHHHHHMSRSSLIFENNNDNNEKKKRKLFQDEYNYQSCYPLSYLNVYNNNNNNNHNSNNNSNNDNNRIYDYAYSQSYNYTYDQTYNDVYNKIYNDSKNIAQNVLNVQVNEEPYDKSLNNSHTTYPFSNIINSNQLNSNILNNNEMIDMRNFYENGNFVNPMIENKDQNQFNEPNKNNLNNTMANVNNINNINNIQFDKSLLINCIDVLLNFMNYNNLKDTITEETLHENLINLRFYILRLNGGKVSQKKITEYFHKM: not soluble
- MSLYQEFFTFIPVDIEELDKAFGGGLIRGATISIMYDAFSLGWALGFEMVKNLIRRNSFGVIHNYNLPTIKLISRASFVGLNIQELAKRKEIMILDVFGSKYDVPPYADYVLQVPNPTPETLNPKIESVYENKIFQVAGDRRIVKLVYTLDGVATMFGEEVAIKLLNGELAWLAKMYGKRNVMTILLLNVDMVSKKFIAWTSGVSDIVITFQSLTEEREGELVERMTVIKSLNPEFEPTSYEFRVTATGTGSHALDFRKIENEGHHHHHH: not soluble
- GTGRSRLLEDFRNNRFPNLQLRDLIGHIVEFSQDQHGSRFIQQKLERATPAERQIVFNEILQAAYQLMTDVFGNYVIQKFFEFGSLDQKLALATRIRGHVLPLALQMYGCRVIQKALESISSDQQSEMVKELDGHVLKCVKDQNGNHVVQKCIECVQPQSLQFIIDAFKGQVFVLSTHPYGCRVIQRILEHCTAEQTLPILEELHQHTEQLVQDQYGNYVIQHVLEHGRPEDKSKIVSEIRGKVLALSQHKFASNVVEKCVTHASRAERALLIDEVCCQNDGPHSALYTMMKDQYANYVVQKMIDMAEPAQRKIIMHKIRPHITTLRKYTYGKHILAKLEKYYLKNSPDLG: soluble
- MGHHHHHHSHMDDPLLVELQAEDYWYEAYNMRTGARGVFPAYYAIEVTKEPEHMAALAKNSDWVDQFRVKFLGSVQVPYHKGNDVLCAAMQKIATTRRLTVHFNPPSSCVLEISVRGVKIGVKADDSQEAKGNKCSHFFQLKNISFCGYHPKNNKYFGFITKHPADHRFACHVFVSEDSTKALAESVGRAFQQFYKQFVEYTCPT: soluble
- TETSPDKWLIDGDTPLDEVERAIGYELPEGDYETISGLLFDHANALLKTGDVIEIPLDFEPEDYLNNTSPTQRILRITVLEVERNVPVKLALALLEDHPDNHPAPKENR: soluble
- MQVQRAITRNLAKANGYFNKTFKPPTVNYTVRGLKAGVAYLQQNQIRFNPILLQENGQAFIQQVIPHELAHILVFQQFGHVLPHGKEWQMMMEQVLGTSAEVYHTFNTQNVAGQQFAYICACQTHLLSIRLHNAILKNKRQYICKQCKQVLYYKDVLANYSNNTKKLEHHHHHH: not soluble

---

# procedure-text: soluble on expression in E. coli; label from the status in PepcDB or PDB records
quantity-kind: soluble on expression in E. coli

* MEKATKRNDEECEVQLNIKRNSKHSAWTGELFKIECPVKYCVHRPNVTWCKHNGTIWVPLEVGPQLYTSWEENRSVPVFVLHFKPIHLSDNGSYSCSTNFNSQVINSHSVTIHVRERSQNSS | soluble
* MSLPIDEHVNAVKTVVVPAAGLGTRFLPATKTVPKELLPVVDTPGIELIAAEAAELGATRLAIITAPNKAGVLAHFERSSELEETLMERGKTDQVEIIRRAADLIKAVPVTQDKPLGLGHAVGLAESVLDDDEDVVAVMLPDDLVLPTGVMERMAQVRAEFGGSVLCAVEVSEADVSKYGIFEIEADTKDSDVKKVKGMVEKPAIEDAPSRLAATGRYLLDRKIFDALRRITPGAGGELQLTDAIDLLIDEGHPVHIVIHQGKRHDLGNPGGYIPACVDFGLSHPVYGAQLKDAIKQILAEHEAAERIADDSQVKLEHHHHHH | soluble
